system-name: TRPA1 channels (Homo sapiens, UniProt O75762)
Sequence (O75762 whole entry): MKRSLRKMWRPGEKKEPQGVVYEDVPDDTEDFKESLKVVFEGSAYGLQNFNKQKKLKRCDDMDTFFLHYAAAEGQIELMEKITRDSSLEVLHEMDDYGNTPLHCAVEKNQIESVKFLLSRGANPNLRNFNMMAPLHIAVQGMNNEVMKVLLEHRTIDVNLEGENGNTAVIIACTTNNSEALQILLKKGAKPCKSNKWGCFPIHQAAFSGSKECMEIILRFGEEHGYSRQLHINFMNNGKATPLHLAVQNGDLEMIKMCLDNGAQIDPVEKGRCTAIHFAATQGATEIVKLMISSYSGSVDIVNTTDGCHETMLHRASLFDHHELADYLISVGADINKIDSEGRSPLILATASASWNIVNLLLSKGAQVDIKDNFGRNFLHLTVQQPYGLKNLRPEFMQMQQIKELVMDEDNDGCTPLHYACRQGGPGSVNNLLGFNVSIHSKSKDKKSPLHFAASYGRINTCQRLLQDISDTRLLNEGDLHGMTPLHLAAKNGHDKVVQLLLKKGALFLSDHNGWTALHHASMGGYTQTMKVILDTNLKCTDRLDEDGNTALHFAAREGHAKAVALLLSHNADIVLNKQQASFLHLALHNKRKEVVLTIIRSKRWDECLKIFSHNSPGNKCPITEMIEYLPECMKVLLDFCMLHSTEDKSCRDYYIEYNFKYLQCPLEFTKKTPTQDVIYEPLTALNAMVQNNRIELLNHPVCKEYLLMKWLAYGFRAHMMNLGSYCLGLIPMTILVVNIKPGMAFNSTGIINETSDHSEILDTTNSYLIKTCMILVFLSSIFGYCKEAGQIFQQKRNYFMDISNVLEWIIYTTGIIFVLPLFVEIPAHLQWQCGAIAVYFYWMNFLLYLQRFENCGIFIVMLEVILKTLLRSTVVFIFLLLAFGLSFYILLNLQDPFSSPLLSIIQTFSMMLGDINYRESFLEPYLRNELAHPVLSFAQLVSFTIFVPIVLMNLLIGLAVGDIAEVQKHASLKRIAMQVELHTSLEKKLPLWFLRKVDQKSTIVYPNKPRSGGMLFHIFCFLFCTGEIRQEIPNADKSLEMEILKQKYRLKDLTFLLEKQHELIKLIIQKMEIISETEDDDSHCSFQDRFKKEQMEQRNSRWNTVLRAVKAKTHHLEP
measurement-description: TRP Family FLIPR Assay, TRPA1
experimental-setup: antagonist mode; activated with mustard oil 80 μM; CHO cells; 0.003-10 μM; read-out: IC50 hTRPA1
Protocol: The compound of Example 5 was tested for selectivity against a panel of Human TRP family ion channels in a TRP Family FLIPR Assay as described below. • 1. TRPC3 channels (human TRPC3 variant 1 gene, expressed in HEK293 cells). • 2. TRPC4 channels (human TRPC4 gene, expressed in HEK293 cells). • 3. […] Data acquisition was performed via the FLIPR Control software supplied with the FLIPR System (MDS-AT) and data was analyzed using Microsoft Excel (Microsoft Corp., Redmond, WA) or GraphPad Prism. […]
property-label: IC50

# input compound: CC(C)(O)c1cnc(N2C[C@@]3(CC[C@@H](F)[C@](C)(Cn4cnc5ccc(C#N)cc54)C3)OC2=O)cn1 (single isomer, unassigned) ; wanted: its IC50
> 10 µM

* * *

system-name: UniProt Q9HBA0
Sequence (Q9HBA0 whole entry): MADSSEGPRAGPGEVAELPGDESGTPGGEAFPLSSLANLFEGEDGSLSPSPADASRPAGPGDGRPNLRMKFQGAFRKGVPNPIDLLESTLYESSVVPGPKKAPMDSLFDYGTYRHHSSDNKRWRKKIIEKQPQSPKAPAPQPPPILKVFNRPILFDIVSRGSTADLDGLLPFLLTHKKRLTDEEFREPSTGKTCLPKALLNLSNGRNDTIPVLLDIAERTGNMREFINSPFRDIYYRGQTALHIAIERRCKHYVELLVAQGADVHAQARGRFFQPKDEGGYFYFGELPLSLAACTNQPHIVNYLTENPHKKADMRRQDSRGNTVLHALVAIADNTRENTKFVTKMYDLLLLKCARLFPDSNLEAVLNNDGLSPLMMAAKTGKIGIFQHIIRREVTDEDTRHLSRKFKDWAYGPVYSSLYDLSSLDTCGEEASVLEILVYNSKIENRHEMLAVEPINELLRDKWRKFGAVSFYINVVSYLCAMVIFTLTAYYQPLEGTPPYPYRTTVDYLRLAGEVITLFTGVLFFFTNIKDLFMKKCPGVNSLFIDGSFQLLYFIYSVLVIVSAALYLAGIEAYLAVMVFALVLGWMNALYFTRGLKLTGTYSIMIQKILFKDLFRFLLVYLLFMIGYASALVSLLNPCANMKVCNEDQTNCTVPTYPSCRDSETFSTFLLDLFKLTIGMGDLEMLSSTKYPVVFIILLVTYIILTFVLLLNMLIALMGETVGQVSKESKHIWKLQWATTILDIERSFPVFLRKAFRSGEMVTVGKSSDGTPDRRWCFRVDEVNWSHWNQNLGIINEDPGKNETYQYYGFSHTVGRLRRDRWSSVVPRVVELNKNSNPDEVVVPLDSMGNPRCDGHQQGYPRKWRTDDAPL
measurement-description: TRP Family FLIPR Assay, TRPV4
Format: cell-based
Parameters: expressed in transfected cells; host or cells: CHO
experimental-setup: antagonist mode; activated with GSK1016790A 0.3 μM; CHO cells; 0.003-10 μM; read-out: IC50 hTRPV4
property-label: IC50 (nM)
The response must be a number in nM with no trailing unit.

Give recorded IC50 with UniProt Q9HBA0 for the following molecule: CC(C)(O)c1cnc(N2C[C@@]3(CC[C@@H](F)[C@](C)(Cn4cnc5ccc(C#N)cc54)C3)OC2=O)cn1 (single isomer, unassigned)
14

* * *

Tested on: Hepatocytes
measurement-description: Hepatocytes predicted clearance, human
Hepatocytes predicted clearance in human by entry:
Write it as a number; the unit mL/min/kg goes unstated.

Check out these entries, answers already filled in.
INSERT INTO assay_data (compound, system_name, property_label, result_unit, reported_value) VALUES
  ('CC1(C)C[C@](C)(Cn2cnc3ccc(C#N)cc32)C[C@@]2(CN(c3cnc(C(C)(C)O)cn3)C(=O)O2)C1 (single isomer, unassigned)', 'Hepatocytes', 'Hepatocytes predicted clearance in human', 'mL/min/kg', 1.5),
  ('CC(C)(O)c1cnc(N2C[C@@]3(CCC(F)(F)[C@](C)(Cn4cnc5ccc(C#N)cc54)C3)OC2=O)cn1', 'Hepatocytes', 'Hepatocytes predicted clearance in human', 'mL/min/kg', 3.83),
  ('CC(C)(O)c1cnc(N2C[C@@]3(CCC(C)(C)[C@H](Cn4cnc5ccc(C#N)cc54)C3)OC2=O)cn1 (single isomer, unassigned)', 'Hepatocytes', 'Hepatocytes predicted clearance in human', 'mL/min/kg', 4.5),
  ('CC(C)(O)c1cnc(N2C[C@@]3(CCC[C@](CF)(Cn4cnc5ccc(C#N)cc54)C3)OC2=O)cn1 (single isomer, unassigned)', 'Hepatocytes', 'Hepatocytes predicted clearance in human', 'mL/min/kg', 1);

Then there is this compound:
If you can, please state the reported Hepatocytes predicted clearance in human value of CC(C)(O)c1cnc(N2C[C@@]3(CCC4(CC4)[C@@H](Cn4cnc5ccc(C#N)cc54)C3)OC2=O)cn1 (single isomer, unassigned) .
3.17

* * *

System: Hepatocytes
measurement-description: Hepatocytes predicted clearance, cyno
property-label: Hepatocytes predicted clearance in cyno
Reply with a number, then the unit it belongs to.

// solved cases for Hepatocytes predicted clearance in cyno follow
INSERT INTO measurements (molecule, property_label, reported_value) VALUES
  ('CC(C)(O)c1cnc(N2C[C@@]3(CCC4(CC4)[C@](C)(Cn4cnc5ccc(C#N)cc54)C3)OC2=O)cn1 (single isomer, unassigned)', 'Hepatocytes predicted clearance in cyno', '120 mL/min/kg'),
  ('CC(C)(O)c1cnc(N2C[C@@]3(CCC(F)(F)[C@H](Cn4cnc5ccc(C#N)cc54)C3)OC2=O)cn1', 'Hepatocytes predicted clearance in cyno', '34.8 mL/min/kg'),
  ('CC(C)(O)c1cnc(N2C[C@@]3(CCC4(CC4)[C@@H](Cn4cnc5ccc(C#N)cc54)C3)OC2=O)cn1 (single isomer, unassigned)', 'Hepatocytes predicted clearance in cyno', '182 mL/min/kg'),
  ('CC(C)(O)c1cnc(N2C[C@@]3(CCC(C)(C)[C@H](Cn4cnc5ccc(C#N)cc54)C3)OC2=O)cn1 (single isomer, unassigned)', 'Hepatocytes predicted clearance in cyno', '4 mL/min/kg'),
  ('CC(C)(O)c1cnc(N2C[C@@]3(CC[C@H]4C[C@@]4(Cn4cnc5ccc(C#N)cc54)C3)OC2=O)cn1 (single isomer, unassigned)', 'Hepatocytes predicted clearance in cyno', '37.5 mL/min/kg');

Fill in the blank: the reported Hepatocytes predicted clearance in cyno of CC(C)(O)c1cnc(N2C[C@@]3(CCC(F)(F)[C@](C)(Cn4cnc5ccc(C#N)cc54)C3)OC2=O)cn1 is ____.
28.3 mL/min/kg

* * *

system-name: TRPM3 channels (Homo sapiens, UniProt Q9HCF6)
measurement-description: TRP Family FLIPR Assay, TRPM3
experimental-setup: antagonist mode; activated with pregnenolone 30 μM; HEK293 cells (transient); 0.003-10 μM; read-out: IC50 hTRPM3
property-label: IC50

// IC50 lookup, key: CC(C)(O)c1cnc(N2C[C@@]3(CC[C@@H](F)[C@](C)(Cn4cnc5ccc(C#N)cc54)C3)OC2=O)cn1 (single isomer, unassigned)
> 10 µM

* * *

system-name: TRPM2 channels (Homo sapiens, UniProt O94759)
Sequence (O94759 whole entry): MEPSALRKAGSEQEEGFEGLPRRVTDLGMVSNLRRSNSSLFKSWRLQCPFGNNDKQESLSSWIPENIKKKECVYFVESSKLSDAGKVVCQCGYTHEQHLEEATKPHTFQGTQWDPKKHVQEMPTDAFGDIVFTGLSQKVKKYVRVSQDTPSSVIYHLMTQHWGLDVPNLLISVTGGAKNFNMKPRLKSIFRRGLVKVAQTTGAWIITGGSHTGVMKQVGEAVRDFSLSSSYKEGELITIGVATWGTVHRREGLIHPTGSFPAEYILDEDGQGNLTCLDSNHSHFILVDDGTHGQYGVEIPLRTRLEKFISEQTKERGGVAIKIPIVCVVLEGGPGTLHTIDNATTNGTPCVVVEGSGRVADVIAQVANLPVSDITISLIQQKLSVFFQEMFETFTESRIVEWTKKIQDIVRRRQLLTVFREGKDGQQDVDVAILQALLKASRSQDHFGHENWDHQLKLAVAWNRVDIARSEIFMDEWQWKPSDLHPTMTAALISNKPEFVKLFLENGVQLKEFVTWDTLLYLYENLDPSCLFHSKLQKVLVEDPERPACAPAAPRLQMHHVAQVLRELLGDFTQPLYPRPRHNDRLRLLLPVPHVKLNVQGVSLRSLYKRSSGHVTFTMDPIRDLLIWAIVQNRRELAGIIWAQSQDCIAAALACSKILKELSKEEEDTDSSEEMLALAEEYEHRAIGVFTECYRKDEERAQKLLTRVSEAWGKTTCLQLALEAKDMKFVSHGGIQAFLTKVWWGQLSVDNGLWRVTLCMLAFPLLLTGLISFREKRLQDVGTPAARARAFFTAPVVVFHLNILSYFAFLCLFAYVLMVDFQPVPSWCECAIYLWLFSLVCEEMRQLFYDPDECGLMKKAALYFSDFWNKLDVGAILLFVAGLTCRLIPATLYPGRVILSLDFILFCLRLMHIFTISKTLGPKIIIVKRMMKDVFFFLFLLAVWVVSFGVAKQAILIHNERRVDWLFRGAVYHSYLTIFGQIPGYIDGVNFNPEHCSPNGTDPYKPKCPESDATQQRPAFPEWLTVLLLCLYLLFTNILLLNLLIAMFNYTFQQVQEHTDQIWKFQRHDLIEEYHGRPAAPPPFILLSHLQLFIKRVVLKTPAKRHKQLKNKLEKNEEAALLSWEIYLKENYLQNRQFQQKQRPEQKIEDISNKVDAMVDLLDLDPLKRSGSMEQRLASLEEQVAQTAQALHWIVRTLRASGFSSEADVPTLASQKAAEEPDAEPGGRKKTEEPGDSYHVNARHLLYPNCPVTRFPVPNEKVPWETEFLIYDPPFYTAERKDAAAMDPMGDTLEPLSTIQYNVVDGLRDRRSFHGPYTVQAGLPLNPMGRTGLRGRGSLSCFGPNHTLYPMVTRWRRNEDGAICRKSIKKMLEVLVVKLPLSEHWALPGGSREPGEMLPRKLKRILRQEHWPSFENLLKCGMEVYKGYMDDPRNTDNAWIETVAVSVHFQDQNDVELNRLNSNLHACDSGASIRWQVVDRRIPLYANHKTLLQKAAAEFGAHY
measurement-description: TRP Family FLIPR Assay, TRPM2
experimental-setup: agonist mode; vs EMAX of H2O2 333 μM; HEK293 cells (transient); read-out: EC50 hTRPM2
property-label: EC50

State the recorded EC50 for this entry: CC(C)(O)c1cnc(N2C[C@@]3(CC[C@@H](F)[C@](C)(Cn4cnc5ccc(C#N)cc54)C3)OC2=O)cn1 (single isomer, unassigned)
> 10 µM

* * *

system-name: TRPC5 channels (Homo sapiens, UniProt Q9UL62)
Sequence (Q9UL62 1-973): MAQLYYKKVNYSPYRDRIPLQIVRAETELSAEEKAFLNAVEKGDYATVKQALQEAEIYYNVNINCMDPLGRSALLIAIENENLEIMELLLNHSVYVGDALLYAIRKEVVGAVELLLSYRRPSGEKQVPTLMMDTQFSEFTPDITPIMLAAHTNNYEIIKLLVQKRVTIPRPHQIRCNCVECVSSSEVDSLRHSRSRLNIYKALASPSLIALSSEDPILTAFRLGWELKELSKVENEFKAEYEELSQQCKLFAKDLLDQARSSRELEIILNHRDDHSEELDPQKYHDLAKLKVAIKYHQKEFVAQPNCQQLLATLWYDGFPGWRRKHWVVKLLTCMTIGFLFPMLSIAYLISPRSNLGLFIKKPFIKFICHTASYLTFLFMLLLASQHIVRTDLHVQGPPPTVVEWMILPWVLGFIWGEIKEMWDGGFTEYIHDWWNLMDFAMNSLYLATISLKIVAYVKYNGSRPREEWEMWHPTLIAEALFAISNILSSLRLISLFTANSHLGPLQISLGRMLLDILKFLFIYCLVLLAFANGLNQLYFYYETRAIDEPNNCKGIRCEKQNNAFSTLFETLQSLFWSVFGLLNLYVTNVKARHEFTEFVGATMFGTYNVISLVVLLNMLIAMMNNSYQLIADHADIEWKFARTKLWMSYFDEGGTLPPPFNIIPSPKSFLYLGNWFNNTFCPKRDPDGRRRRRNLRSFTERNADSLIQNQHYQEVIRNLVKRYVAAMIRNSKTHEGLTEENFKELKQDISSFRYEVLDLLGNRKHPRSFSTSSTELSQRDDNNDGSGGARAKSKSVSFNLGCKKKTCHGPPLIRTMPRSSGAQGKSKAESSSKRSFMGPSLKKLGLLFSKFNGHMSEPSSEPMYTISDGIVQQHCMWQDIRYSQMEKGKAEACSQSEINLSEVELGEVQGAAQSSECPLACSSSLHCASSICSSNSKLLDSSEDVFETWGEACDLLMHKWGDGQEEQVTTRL
measurement-description: TRP Family FLIPR Assay, TRPC5
experimental-setup: agonist mode; vs EMAX of (−)-Englerin A 30 μM; HEK293 cells; read-out: EC50 hTRPC5
pEC50: −log10 of the molar value.
property-label: pEC50

Could you share which pEC50 value was measured for CC(C)(O)c1cnc(N2C[C@@]3(CC[C@@H](F)[C@](C)(Cn4cnc5ccc(C#N)cc54)C3)OC2=O)cn1 (single isomer, unassigned) ?
< 5.00

* * *

system-name: TRPM5 channels (Homo sapiens)
Sequence (Q9NZQ8 whole entry): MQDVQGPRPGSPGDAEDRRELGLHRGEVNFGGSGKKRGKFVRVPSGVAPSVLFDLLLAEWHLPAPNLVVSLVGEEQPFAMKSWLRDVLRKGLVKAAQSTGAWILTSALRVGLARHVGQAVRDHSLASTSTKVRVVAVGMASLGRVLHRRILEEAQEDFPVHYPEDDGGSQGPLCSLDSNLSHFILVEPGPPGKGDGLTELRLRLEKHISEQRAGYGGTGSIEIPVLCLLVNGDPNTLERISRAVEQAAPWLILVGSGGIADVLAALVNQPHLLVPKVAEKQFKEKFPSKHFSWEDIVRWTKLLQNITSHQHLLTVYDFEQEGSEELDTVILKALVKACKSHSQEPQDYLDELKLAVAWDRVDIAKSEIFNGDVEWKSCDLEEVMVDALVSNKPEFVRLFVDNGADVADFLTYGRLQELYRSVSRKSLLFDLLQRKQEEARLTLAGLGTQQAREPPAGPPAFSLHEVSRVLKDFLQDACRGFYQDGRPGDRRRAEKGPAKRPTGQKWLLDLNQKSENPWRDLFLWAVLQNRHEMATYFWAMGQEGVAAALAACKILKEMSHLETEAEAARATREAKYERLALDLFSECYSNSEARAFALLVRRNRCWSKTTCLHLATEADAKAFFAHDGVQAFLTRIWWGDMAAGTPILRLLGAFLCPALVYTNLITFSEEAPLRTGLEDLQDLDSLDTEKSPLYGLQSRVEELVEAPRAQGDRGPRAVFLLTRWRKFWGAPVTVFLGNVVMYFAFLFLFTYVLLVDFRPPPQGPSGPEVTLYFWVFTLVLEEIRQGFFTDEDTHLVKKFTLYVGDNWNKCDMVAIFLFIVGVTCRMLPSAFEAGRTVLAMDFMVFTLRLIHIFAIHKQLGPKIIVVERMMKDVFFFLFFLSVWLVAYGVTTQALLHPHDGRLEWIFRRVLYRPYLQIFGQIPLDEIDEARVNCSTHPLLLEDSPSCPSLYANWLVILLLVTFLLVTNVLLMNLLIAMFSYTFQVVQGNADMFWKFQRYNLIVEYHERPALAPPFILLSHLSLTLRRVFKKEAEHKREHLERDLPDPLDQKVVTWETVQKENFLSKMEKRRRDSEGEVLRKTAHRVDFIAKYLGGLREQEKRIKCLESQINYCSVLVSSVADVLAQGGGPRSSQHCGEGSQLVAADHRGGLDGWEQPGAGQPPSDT
measurement-description: TRP Family FLIPR Assay, TRPM5
experimental-setup: antagonist mode; activated with Mg-ATP 75 μM; CHO cells; 0.003-10 μM; read-out: IC50 hTRPM5
property-label: IC50

Consider the molecule CC(C)(O)c1cnc(N2C[C@@]3(CC[C@@H](F)[C@](C)(Cn4cnc5ccc(C#N)cc54)C3)OC2=O)cn1 (single isomer, unassigned) and give its measured IC50.
> 10 µM
